All values here come from the supplement of paper PMC13380429.

Items are presented alongside their recorded cell viability.
Test system: Vero E6
procedure-text: cell viability relative to DMSO; higher = less toxic
test-settings: 72 h; 1000 nM
Field: numeric (%). Do not append units.

1. Oc1cccc2cccnc12; 103

Q) Could you share which cell viability value was measured for C[C@]12CCC(=O)C=C1CC[C@@H]1[C@@H]2[C@@H](O)C[C@@]2(C)[C@H]1CC[C@]2(O)C(=O)COC(=O)CCC(=O)O [hydrocortisone-hemisuccinate] ?
A) 93.5

Q) Field entry: C[C@]12CC[C@H]3[C@@H](CC[C@@]45O[C@@H]4C(O)=C(C#N)C[C@]35C)[C@@H]1CC[C@@H]2O
A) 92.4

Q) Field entry: CNCCC(Oc1ccccc1OC)c1ccccc1 (stereo not given)
A) 103

Q) Field entry: COC(=O)C1=C(C)NC(C)=C(C(=O)NCCCN2CCC(c3ccccc3)(c3ccccc3)CC2)C1c1ccc([N+](=O)[O-])cc1 (stereo not given)
A) 91.8

====

Tested on: HepG2
procedure-text: cell viability relative to DMSO; higher = less toxic
test-settings: 72 h; 10 nM
property-name: cell viability (%)
Field: numeric (%). Do not append units.

See these solved cases before continuing.
1) C=C[C@@]1(C)CC(=O)[C@]2(O)[C@@]3(C)[C@@H](O)CCC(C)(C)[C@@H]3[C@H](O)[C@H](OC(C)=O)[C@@]2(C)O1; 106
2) CC[C@@]1(O)C(=O)OCc2c1cc1n(c2=O)Cc2cc3cc(O)ccc3nc2-1 [10-hydroxycamptothecin]; 47.8
3) O=C(NC[C@H](O)CN1CCc2ccccc2C1)c1cc(NC2COC2)ncn1; 104

Q) Could you share which cell viability value was measured for CCC[C@H](N[C@@H](C)C(=O)N1[C@H](C(=O)O)C[C@@H]2CCCC[C@@H]21)C(=O)OCC ?
A) 105

Q) Field entry: O=[N+]([O-])c1cc(O)c(O)c([N+](=O)[O-])c1
A) 98.3

Q) Field entry: Cc1ccc(-c2nc3ccc(C)cn3c2CC(=O)N(C)C)cc1
A) 97.7

Q) Field entry: O=C(O)c1cc(O)c2c(c1)C(=O)c1cccc(O)c1C2=O
A) 95.5

Q) Field entry: CCOc1cc2ncc(C#N)c(Nc3ccc(OCc4ccccn4)c(Cl)c3)c2cc1NC(=O)/C=C/CN(C)C
A) 97.3

====

Tested on: Calu-3
procedure-text: cell viability relative to DMSO; higher = less toxic
test-settings: 72 h; 10000 nM
Items are presented alongside their recorded cell viability.
Include the unit right after the number.

1. N#Cc1ccc(C2CCCc3cncn32)cc1 (centres undefined); 95.3%
2. CC(C)(O)c1ccn2c(-c3ccc(F)c(-c4ccc(F)cc4C#N)c3)cnc2c1F; 92.7%
3. CC1CNc2c(cccc2S(=O)(=O)N[C@@H](CCCNC(=N)N)C(=O)N2CC[C@@H](C)C[C@@H]2C(=O)O)C1 (mixture of isomers); 94.6%
4. Cc1cc(O)c(C(C)C)cc1Cl; 91.9%
5. CN1CCN(C(c2ccccc2)c2ccccc2)CC1; 99.9%

Q) Can you look up cell viability on Calu-3 for CC(C)c1ccc(CC(=O)N2CCC[C@@H](c3cccc(OC(C)(C)C(=O)O)c3)C2)cc1 ?
A) 98.6%

Q) Field entry: CN1CCC(c2c[nH]c3ccc(O)cc23)CC1
A) 90.3%

Q) Field entry: CC(=O)N(CC(O)CN(C(C)=O)c1c(I)c(C(=O)NCC(O)CO)c(I)c(C(=O)NCC(O)CO)c1I)c1c(I)c(C(=O)NCC(O)CO)c(I)c(C(=O)NCC(O)CO)c1I (centres undefined)
A) 96.3%

Q) Field entry: C=C[C@@]1(C)CC(=O)[C@]2(O)[C@@]3(C)[C@@H](O)CCC(C)(C)[C@@H]3[C@H](O)[C@H](OC(C)=O)[C@@]2(C)O1
A) 97.5%
